# Test system: HepG2 cells
# Test details: HepG2 cell toxicity assay (Alamar Blue, 48 h)
# Assay type: cell-based, human
# Condition description: human

- Smiles data: "Clc1cccc(CNc2ncnc3c2nc(-c2ccccc2)n3Cc2cccc(Cl)c2)c1"
  [TC50] HepG2 assay: "> 1,000 μM"
- Smiles data: "Clc1ccc(CNc2ncnc3c2ncn3Cc2ccc(Cl)cc2)cc1"
  [TC50] HepG2 assay: "> 1,000 μM"
- Smiles data: "Clc1ccccc1CNc1ncnc2c1nc(-c1ccccc1)n2Cc1ccccc1Cl"
  [TC50] HepG2 assay: ">10,000 μM"
- Smiles data: "c1ccc(CNc2ncnc3c2nc(-c2ccccc2)n3Cc2ccccc2)cc1"
  [TC50] HepG2 assay: "> 10,000 μM"
- Smiles data: "COc1ccc(CNc2ncnc3c2nc(-c2ccccc2)n3Cc2ccc(OC)cc2)cc1"
  [TC50] HepG2 assay: "> 10,000 μM"
